Where these numbers come from: ChEMBL document CHEMBL1139890

Tested on: Human gammaherpesvirus 4
experiment description: Inhibitory effect on TPA-induced Epstein-Barr virus early antigen activation in Raji cells at 1000 mol ratio/32 pmol TPA relative to TPA
Type: functional
Set-up: scale not given: the % may be the effect or the level left
measure name: Activity (%)

INSERT INTO assay_data (compound, measure_name, reading) VALUES
  ('C[C@H](CC[C@@H](O)C(C)(C)O[C@@H]1O[C@H](CO)[C@@H](O)[C@H](O)[C@H]1O)[C@H]1CC[C@@]2(C)[C@@H]3CC=C4[C@@H](CC[C@H](O[C@@H]5O[C@H](CO)[C@@H](O)[C@H](O)[C@H]5O)C4(C)C)[C@]3(C)[C@H](O)C[C@]12C [MOGROSIDE II B]', 'Activity', 7.2),
  ('C[C@H](CC[C@@H](O[C@@H]1O[C@H](CO[C@@H]2O[C@H](CO)[C@@H](O)[C@H](O)[C@H]2O)[C@@H](O)[C@H](O)[C@H]1O)C(C)(C)O)[C@H]1CC[C@@]2(C)[C@@H]3CC=C4[C@@H](CC[C@H](O[C@@H]5O[C@H](CO[C@@H]6O[C@H](CO)[C@@H](O)[C@H](O)[C@H]6O)[C@@H](O)[C@H](O)[C@H]5O)C4(C)C)[C@]3(C)C(=O)C[C@]12C [11-OXOMOGROSIDE IV A]', 'Activity', 10.3),
  ('C[C@H](CC[C@@H](O[C@@H]1O[C@H](CO[C@@H]2O[C@H](CO)[C@@H](O)[C@H](O)[C@H]2O)[C@@H](O)[C@H](O)[C@H]1O)C(C)(C)O)[C@H]1CC[C@@]2(C)[C@@H]3CC=C4[C@@H](CC[C@H](O[C@@H]5O[C@H](CO)[C@@H](O)[C@H](O)[C@H]5O)C4(C)C)[C@]3(C)CC[C@]12C', 'Activity', 10.6);

====

System: Human gammaherpesvirus 4
experiment description: Inhibitory effect on TPA-induced Epstein-Barr virus early antigen activation in Raji cells at 500 mol ratio/32 pmol TPA relative to TPA
Format: functional
Set-up: scale not given: the % may be the effect or the level left
measure name: Activity (%)

INSERT INTO measurements (molecule, measure_name, unit_text, reading) VALUES
  ('C[C@H](CC[C@@H](O[C@@H]1O[C@H](CO[C@@H]2O[C@H](CO)[C@@H](O)[C@H](O)[C@H]2O)[C@@H](O)[C@H](O)[C@H]1O)C(C)(C)O)[C@H]1CC[C@@]2(C)[C@@H]3CC=C4[C@@H](CC[C@H](O[C@@H]5O[C@H](CO[C@@H]6O[C@H](CO)[C@@H](O)[C@H](O)[C@H]6O)[C@@H](O)[C@H](O)[C@H]5O)C4(C)C)[C@]3(C)C(=O)C[C@]12C [11-OXOMOGROSIDE IV A]', 'Activity', '%', 27.3),
  ('C[C@H](CC[C@@H](O[C@@H]1O[C@H](CO[C@@H]2O[C@H](CO)[C@@H](O)[C@H](O)[C@H]2O)[C@@H](O)[C@H](O)[C@H]1O)C(C)(C)O)[C@H]1CC[C@@]2(C)[C@@H]3CC=C4[C@@H](CC[C@H](O)C4(C)C)[C@]3(C)C(=O)C[C@]12C', 'Activity', '%', 25);

====

experiment description: Inhibitory ratio on NOR1-induced NO activation in human Chang liver cells assessed as nitric oxide scavenging activity relative to NOR1
Format: functional
// values below are reported Ratio
measure name: Ratio

INSERT INTO measurements (compound, measure_name, reading) VALUES
  ('C[C@H](CC[C@@H](O[C@@H]1O[C@H](CO)[C@@H](O)[C@H](O)[C@H]1O)C(C)(C)O)[C@H]1CC[C@@]2(C)[C@@H]3C(=O)C=C4[C@@H](CC[C@H](O[C@@H]5O[C@H](CO)[C@@H](O)[C@H](O)[C@H]5O)C4(C)C)[C@]3(C)[C@H](O)C[C@]12C', 'Ratio', 1.5),
  ('C[C@H](CC[C@@H](O[C@@H]1O[C@H](CO)[C@@H](O)[C@H](O)[C@H]1O)C(C)(C)O)[C@H]1CC[C@@]2(C)[C@@H]3CC=C4[C@@H](CC[C@H](O[C@@H]5O[C@H](CO[C@@H]6O[C@H](CO)[C@@H](O)[C@H](O)[C@H]6O)[C@@H](O)[C@H](O)[C@H]5O)C4(C)C)[C@]3(C)[C@H](O)C[C@]12C [MOGROSIDE III A2]', 'Ratio', 1.5),
  ('CC1(C)N([O])C(c2ccc(C(=O)O)cc2)=[N+]([O-])C1(C)C', 'Ratio', 8);

====

experiment description: Inhibitory ratio on NOR1-induced NO activation in human Chang liver cells assessed as nitric oxide scavenging activity relative to NOR1
Format: functional
measure name: Ratio

INSERT INTO measurements (molecule, reading) VALUES
  ('C[C@H](CC[C@@H](O[C@@H]1O[C@H](CO[C@@H]2O[C@H](CO)[C@@H](O)[C@H](O)[C@H]2O)[C@@H](O)[C@H](O)[C@H]1O)C(C)(C)O)[C@H]1CC[C@@]2(C)[C@@H]3CC=C4[C@@H](CC[C@H](O[C@@H]5O[C@H](CO)[C@@H](O)[C@H](O)[C@H]5O)C4(C)C)[C@]3(C)CC[C@]12C', 1.5),
  ('C[C@H](CC[C@@H](O)C(C)(C)O[C@@H]1O[C@H](CO)[C@@H](O)[C@H](O)[C@H]1O)[C@H]1CC[C@@]2(C)[C@@H]3CC=C4[C@@H](CC[C@H](O[C@@H]5O[C@H](CO)[C@@H](O)[C@H](O)[C@H]5O)C4(C)C)[C@]3(C)[C@H](O)C[C@]12C [MOGROSIDE II B]', 1.5),
  ('C[C@H](CC[C@@H](O[C@@H]1O[C@H](CO[C@@H]2O[C@H](CO)[C@@H](O)[C@H](O)[C@H]2O)[C@@H](O)[C@H](O)[C@H]1O)C(C)(C)O)[C@H]1CC[C@@]2(C)[C@@H]3CC=C4[C@@H](CC[C@H](O)C4(C)C)[C@]3(C)C(=O)C[C@]12C', 1.4);

====

Test system: Human gammaherpesvirus 4
experiment description: Inhibitory effect on TPA-induced Epstein-Barr virus early antigen activation in Raji cells at 500 mol ratio/32 pmol TPA relative to TPA
Assay type: functional
Parameters: scale not given: the % may be the effect or the level left
measure name: Activity (%)

INSERT INTO measurements (compound, reading) VALUES
  ('C[C@H](CC[C@@H](O)C(C)(C)O[C@@H]1O[C@H](CO)[C@@H](O)[C@H](O)[C@H]1O)[C@H]1CC[C@@]2(C)[C@@H]3CC=C4[C@@H](CC[C@H](O[C@@H]5O[C@H](CO)[C@@H](O)[C@H](O)[C@H]5O)C4(C)C)[C@]3(C)[C@H](O)C[C@]12C [MOGROSIDE II B]', 26),
  ('C[C@H](CC[C@@H](O[C@@H]1O[C@H](CO)[C@@H](O)[C@H](O)[C@H]1O)C(C)(C)O)[C@H]1CC[C@@]2(C)[C@@H]3CC=C4[C@@H](CC[C@H](O[C@@H]5O[C@H](CO[C@@H]6O[C@H](CO)[C@@H](O)[C@H](O)[C@H]6O)[C@@H](O)[C@H](O)[C@H]5O)C4(C)C)[C@]3(C)[C@H](O)C[C@]12C [MOGROSIDE III A2]', 24),
  ('C[C@H](CC[C@@H](O[C@@H]1O[C@H](CO[C@@H]2O[C@H](CO)[C@@H](O)[C@H](O)[C@H]2O)[C@@H](O)[C@H](O)[C@H]1O)C(C)(C)O)[C@H]1CC[C@@]2(C)[C@@H]3CC=C4[C@@H](CC[C@H](O[C@@H]5O[C@H](CO)[C@@H](O)[C@H](O)[C@H]5O)C4(C)C)[C@]3(C)CC[C@]12C', 25.7),
  ('C[C@H](CC[C@@H](O[C@@H]1O[C@H](CO)[C@@H](O)[C@H](O)[C@H]1O)C(C)(C)O)[C@H]1CC[C@@]2(C)[C@@H]3C(=O)C=C4[C@@H](CC[C@H](O[C@@H]5O[C@H](CO)[C@@H](O)[C@H](O)[C@H]5O)C4(C)C)[C@]3(C)[C@H](O)C[C@]12C', 24.4);

====

Test system: Human gammaherpesvirus 4
experiment description: Inhibitory effect on TPA-induced Epstein-Barr virus early antigen activation in Raji cells at 1000 mol ratio/32 pmol TPA relative to TPA
Assay type: functional
Parameters: scale not given: the % may be the effect or the level left
// values below are reported Activity
measure name: Activity (%)

INSERT INTO assay_data (compound, assay_system, unit_text, reading) VALUES
  ('C[C@H](CC[C@@H](O[C@@H]1O[C@H](CO[C@@H]2O[C@H](CO)[C@@H](O)[C@H](O)[C@H]2O)[C@@H](O)[C@H](O)[C@H]1O)C(C)(C)O)[C@H]1CC[C@@]2(C)[C@@H]3CC=C4[C@@H](CC[C@H](O)C4(C)C)[C@]3(C)C(=O)C[C@]12C', 'Human gammaherpesvirus 4', '%', 8.5),
  ('CC1=C(/C=C/C(C)=C/C=C/C(C)=C/C=C/C=C(C)/C=C/C=C(C)/C=C/C2=C(C)CCCC2(C)C)C(C)(C)CCC1 [BETA CAROTENE]', 'Human gammaherpesvirus 4', '%', 8.6),
  ('C[C@H](CC[C@@H](O[C@@H]1O[C@H](CO)[C@@H](O)[C@H](O)[C@H]1O)C(C)(C)O)[C@H]1CC[C@@]2(C)[C@@H]3CC=C4[C@@H](CC[C@H](O[C@@H]5O[C@H](CO[C@@H]6O[C@H](CO)[C@@H](O)[C@H](O)[C@H]6O)[C@@H](O)[C@H](O)[C@H]5O)C4(C)C)[C@]3(C)[C@H](O)C[C@]12C [MOGROSIDE III A2]', 'Human gammaherpesvirus 4', '%', 5.1),
  ('C[C@H](CC[C@@H](O[C@@H]1O[C@H](CO)[C@@H](O)[C@H](O)[C@H]1O)C(C)(C)O)[C@H]1CC[C@@]2(C)[C@@H]3C(=O)C=C4[C@@H](CC[C@H](O[C@@H]5O[C@H](CO)[C@@H](O)[C@H](O)[C@H]5O)C4(C)C)[C@]3(C)[C@H](O)C[C@]12C', 'Human gammaherpesvirus 4', '%', 7.7);
